Below are compounds with their IC50 as measured on Cytochrome P450 2D6 (Homo sapiens).
Sequence (P10635 whole entry): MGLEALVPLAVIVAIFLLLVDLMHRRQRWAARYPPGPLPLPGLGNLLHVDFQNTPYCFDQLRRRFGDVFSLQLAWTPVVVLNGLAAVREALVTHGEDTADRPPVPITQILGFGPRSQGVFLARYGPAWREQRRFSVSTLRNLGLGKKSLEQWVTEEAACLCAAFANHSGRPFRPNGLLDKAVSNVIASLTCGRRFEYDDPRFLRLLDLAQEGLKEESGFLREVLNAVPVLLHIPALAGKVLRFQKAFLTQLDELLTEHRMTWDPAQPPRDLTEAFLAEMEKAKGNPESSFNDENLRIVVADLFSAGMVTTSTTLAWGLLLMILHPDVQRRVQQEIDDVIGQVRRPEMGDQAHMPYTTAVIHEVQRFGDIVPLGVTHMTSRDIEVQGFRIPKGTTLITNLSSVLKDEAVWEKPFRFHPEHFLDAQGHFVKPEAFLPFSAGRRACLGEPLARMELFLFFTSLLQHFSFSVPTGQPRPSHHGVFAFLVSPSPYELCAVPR

- Compound: "c1ccc(C2CN(c3nnc(N4CCC(N5CCCCC5)CC4)s3)CCO2)nc1 (single isomer, unassigned; enantiomer 2)"
  Assay Target: "Cytochrome P450 2D6 (Homo sapiens)"
  IC50: "> 20 µM"

Shifting focus to the compound that follows.
Item: `C1=C(c2ccccn2)CCCN1c1nnc(N2CCC(N3CCCCC3)CC2)s1` | System: Cytochrome P450 2D6 (Homo sapiens) | IC50: > 20 µM

###

- Assay Target: Histamine H3 receptor (Homo sapiens)
- Sequence (Q9Y5N1 whole entry): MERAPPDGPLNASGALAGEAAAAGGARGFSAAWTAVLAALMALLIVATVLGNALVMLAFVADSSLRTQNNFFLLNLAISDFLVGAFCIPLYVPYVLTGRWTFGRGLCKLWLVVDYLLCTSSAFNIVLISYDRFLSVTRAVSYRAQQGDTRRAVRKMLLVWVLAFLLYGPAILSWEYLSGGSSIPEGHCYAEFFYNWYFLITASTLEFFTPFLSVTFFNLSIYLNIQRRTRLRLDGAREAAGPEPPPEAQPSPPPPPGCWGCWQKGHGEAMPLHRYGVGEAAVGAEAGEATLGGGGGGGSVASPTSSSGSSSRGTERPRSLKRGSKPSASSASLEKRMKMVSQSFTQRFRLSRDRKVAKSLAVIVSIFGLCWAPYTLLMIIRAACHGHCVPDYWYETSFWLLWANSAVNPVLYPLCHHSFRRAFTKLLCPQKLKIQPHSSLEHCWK
- Test: Displacement of [3H]-N-alpha-methylhistamine from human recombinant histamine H3 receptor after 30 mins by scintillation counting
Measured Quantity: Ki (nM)

- Molecule: "FC1(F)CCN(c2nnc(N3CCC(N4CCCCC4)CC3)s2)C1"
  Measured Quantity: "Ki"
  Result: 61
- Molecule: "c1ccc(C2CN(c3nnc(N4CCC(N5CCCCC5)CC4)s3)CCO2)nc1 (stereo in doubt; 5t)"
  Measured Quantity: "Ki"
  Result: 34
- Molecule: "C1=C(c2ccccn2)CCCN1c1nnc(N2CCC(N3CCCCC3)CC2)s1"
  Measured Quantity: "Ki"
  Result: 3

a = O=C1N(c2ccccc2)CCCN1c1nnc(N2CCC(N3CCCCC3)CC2)s1
b = c1ccc(C2CN(c3nnc(N4CCC(N5CCCCC5)CC4)s3)CCO2)nc1 (single isomer, unassigned; enantiomer 2)
c = FC1CCCN(c2nnc(N3CCC(N4CCCCC4)CC3)s2)C1 (stereo unspecified)
d = c1ccc(C2CN(c3nnc(N4CCC(N5CCCCC5)CC4)s3)CCO2)nc1 (stereo in doubt; 5r)
e = C1=C(c2ccccn2)CN(c2nnc(N3CCC(N4CCCCC4)CC3)s2)CC1
IN: List the 5 entries from lowest Ki to highest Ki value. Response format: the labels, sorted as the prompt asks.
OUT: b, d, e, a, c

A = O=C1N(c2nnc(N3CCC(N4CCCCC4)CC3)s2)CCN1C1CCCC1
B = CC1CN(c2nnc(N3CCC(N4CCCCC4)CC3)s2)CC(C)O1 (stereo unspecified)
IN: Which of these two has the smaller recorded Ki: A or B ? Select an item and report its label.
OUT: A

1 = FC1(c2ccccn2)CCCN(c2nnc(N3CCC(N4CCCCC4)CC3)s2)C1 (stereo unspecified)
2 = COC1CCCN(c2nnc(N3CCC(N4CCCCC4)CC3)s2)C1 (stereo unspecified)
IN: Between item 1 and item 2 , which reported Ki is smaller? Identify your selection by its label.
OUT: 1

1 = OC1(c2ncccn2)CCCN(c2nnc(N3CCC(N4CCCCC4)CC3)s2)C1 (stereo unspecified)
2 = FC1(F)CCN(c2nnc(N3CCC(N4CCCCC4)CC3)s2)CC1
IN: Could you point out whether the larger Ki belongs to 1 or to 2 ? // output: label of the selected item
OUT: 1
(1: 67 nM, 2: 15 nM)

###

- Assay Target: Cytochrome P450 2C9 (Homo sapiens)
- Sequence (P11712 whole entry): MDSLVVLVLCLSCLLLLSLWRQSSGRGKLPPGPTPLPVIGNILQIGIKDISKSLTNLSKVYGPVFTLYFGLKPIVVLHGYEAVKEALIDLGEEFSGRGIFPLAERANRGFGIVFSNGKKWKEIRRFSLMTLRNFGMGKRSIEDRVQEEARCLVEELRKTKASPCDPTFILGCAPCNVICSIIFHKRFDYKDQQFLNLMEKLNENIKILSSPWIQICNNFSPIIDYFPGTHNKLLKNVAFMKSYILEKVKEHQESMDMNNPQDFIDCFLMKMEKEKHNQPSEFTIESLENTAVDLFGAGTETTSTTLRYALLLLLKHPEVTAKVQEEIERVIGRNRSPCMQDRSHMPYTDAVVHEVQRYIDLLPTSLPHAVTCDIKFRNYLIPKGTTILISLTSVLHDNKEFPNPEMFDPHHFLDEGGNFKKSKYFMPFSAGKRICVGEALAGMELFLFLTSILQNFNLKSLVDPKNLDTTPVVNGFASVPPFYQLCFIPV
- Test: Inhibition of CYP2C9 under co-incubation conditions
- Type: ADME
- Particulars: read-out: INH
pIC50: −log10 of the molar value.
Measured pIC50 by item

Consider the following illustrative entries.
- Compound: "FC1(c2ccccn2)CCCN(c2nnc(N3CCC(N4CCCCC4)CC3)s2)C1 (stereo not drawn)"
  Assay Target: "Cytochrome P450 2C9 (Homo sapiens)"
  pIC50: "< 4.70"
- Compound: "c1ccc(C2CN(c3nnc(N4CCC(N5CCCCC5)CC4)s3)CCO2)nc1 (single isomer, unassigned; enantiomer 2)"
  Assay Target: "Cytochrome P450 2C9 (Homo sapiens)"
  pIC50: "< 4.70"

Turning to the following compound.
Entry `C1=C(c2ccccn2)CCCN1c1nnc(N2CCC(N3CCCCC3)CC2)s1` , pIC50 reported as < 4.70
